condition.label: buffer; pH 7.4; 200.0 µM
Would you please tag the item satisfied when its solubility kinetic is 40 µg/mL or above, and not satisfied when it is below?

// below: answered molecules
1. Cc1ccc(O)c(NC(=O)c2cc(-c3ccccc3)on2)c1	not satisfied
2. CCS(=O)(=O)c1ncc(CO)n1CCc1ccccc1	satisfied
3. CC(C)CC(=O)NC(=S)Nc1ccc(CN2CCOCC2)cc1	satisfied
4. Cc1cc(OCC(=O)NC2CCN(C)CC2)ccc1[N+](=O)[O-]	satisfied
5. CC(=O)Nc1ccc(SCC(=O)Nc2ccc3c(c2)OCCO3)cc1	satisfied

Qu. Tell me whether solubility kinetic is at least 40 µg/mL here: "COC(=O)c1cnc(Nc2ccc(Cl)cc2)c([N+](=O)[O-])c1"
Ans. not satisfied

Qu. Another molecule: "CC(=O)c1ccc(S(=O)(=O)Nc2ccc3c(c2)OCO3)cc1"
Ans. satisfied

Qu. Then "O=C(CSc1nc(O)c(Cc2ccccc2)c(=O)[nH]1)c1ccccc1" ?
Ans. satisfied

Qu. Also, "Cc1cc(=O)oc2cc(OCC(=O)N3CCCC3)ccc12" please.
Ans. satisfied

Qu. Next entry: CCOc1ccccc1N1CC(C(=O)N(CC)C2CCS(=O)(=O)C2)CC1=O (configuration not stated)
Ans. satisfied

Qu. Another: "CN(c1ccccc1)S(=O)(=O)c1cccc(C(=O)OCC(=O)NCc2ccccc2)c1"
Ans. not satisfied

Qu. Follow-up entry: "Nc1nnc(SCC(=O)Nc2cccnc2Cl)s1"
Ans. satisfied

Qu. Please give the result for "Cc1ccc(S(=O)(=O)N2CCN(C(=O)c3ccco3)CC2)cc1C" too.
Ans. satisfied

Qu. What do you have for "N#Cc1cc([N+](=O)[O-])ccc1N1CCN(c2ccccc2O)CC1" ?
Ans. not satisfied

====

Can you tell me solubility kinetic for the items I'm about to list?
condition.label: buffer; pH 7.4; 200.0 µM

// below: answered compounds
1. Cc1ccc(Cn2ccccc2=N)cc1.Cl	> 35.2 µg/mL
2. CSc1ncccc1C(=O)OCC(=O)N1CCCC1	> 42.1 µg/mL
3. COc1ccc(N)cc1NC(=O)CN1CCCC1	> 37.4 µg/mL
4. O=C(Nc1ccccc1)OCCOc1ccccc1Br	< 0.7 µg/mL
5. COc1ccc(C(CNC(=O)c2ccc(S(=O)(=O)N3CC(C)CC(C)C3)cc2)N(C)C)cc1 (stereo unspecified)	> 71 µg/mL

Qu. # get_value(readout='solubility kinetic', item= "C/C(Cl)=C\C[N+](C)(C)CC(=O)OCCc1ccccc1.[Br-]" )
Ans. > 56.5 µg/mL

====

condition.label: buffer; pH 7.4; 200.0 µM
Please go through the items and note down their solubility kinetic.

Some compounds with recorded solubility kinetic:
1. Cc1cc(C)cc(C(N)=Nc2cccc(C#N)c2)c1	> 37.4 µg/mL
2. COc1ccc(OC)c(NC(=O)COC(=O)CCc2nc3ccccc3c(=O)[nH]2)c1	> 61.7 µg/mL
3. Cc1ccc(S(=O)(=O)CCSc2nccn2C)cc1	> 44.5 µg/mL
4. COc1ccc(CC(=O)NC2CC2)cc1OC	> 35.3 µg/mL
5. COc1ccccc1CNC(=O)CN(C)CC(=O)Nc1ccc(F)c(F)c1F	> 59.3 µg/mL
6. N#Cc1c(Cl)cccc1N1CCC(C(N)=O)CC1	> 39.6 µg/mL
7. O=C(COC(=O)CSc1ccccc1)Nc1ccc(F)cc1F	> 50.6 µg/mL
8. CN(CC(=O)Nc1ccccc1)CC(=O)Nc1ccccc1Cl	> 49.8 µg/mL

Dear colleague, could you send me solubility kinetic for each of the items below? Thanks.
1. C/C(CC(=O)NCCN1CCOCC1)=N\NC(=O)c1ccncc1
2. O=C(Nc1ccccc1O)c1ccc(C(=O)c2ccccc2)o1
3. COc1cccc(CC(=O)NCC2(N3CCCCC3)CCCCC2)c1
4. O=S(=O)(c1cc(F)ccc1F)N1CCC2(CC1)OCCO2
5. CCc1nn(C)c(N)c1C.Cl

Ans.
> 50 µg/mL
< 0.7 µg/mL
> 51.7 µg/mL
> 47.9 µg/mL
> 26.3 µg/mL

====

condition.label: buffer; pH 7.4; 200.0 µM
observation.type: solubility kinetic

Study these solved cases before continuing.
1) CN1CCC(N(CCc2ccccc2)C(=O)CCC(=O)O)CC1	> 47.8 µg/mL
2) CC(=O)Cc1nsc(NC(=O)c2ccccc2Cl)n1	> 44.4 µg/mL

// switching to the query compound
Qu. What value of solubility kinetic has been reported for the following compound? "Cl.NS(=O)(=O)c1ccc(CCNCC#Cc2ccccc2)cc1"
Ans. > 52.6 µg/mL

====

condition.label: buffer; pH 7.4; 200.0 µM
I'd be grateful if you could share measured solubility kinetic for these entries.

1. Cc1ccc(-c2ccc(CO)o2)cc1N	> 30.5 µg/mL
2. Cc1ccc(S(=O)(=O)N2CCOCC2)cc1C(=O)N1CCCC1	> 50.8 µg/mL
3. CCOc1ccc(/C=C/C(=O)NC2CCCCC2)cc1	< 0.6 µg/mL

Here are 5 molecules. What values of solubility kinetic were reported for them?
1. S=C(NCc1ccc(Cl)cc1)NN1CCOCC1
2. CC(C)Cc1ccc(/C=C/C(=O)N2CCOCC2)cc1
3. CCCCCCCn1c(=O)c(C(=O)OC)c(N)c2ccccc21
4. COc1cccc2cc(C(=O)NCc3ccc(C)cc3)c(=O)oc12
5. CC(=O)c1cccc(NC(=O)N2CCOCC2)c1

Ans.
1. > 42.9 µg/mL
2. > 41 µg/mL
3. < 0.3 µg/mL
4. < 0.7 µg/mL
5. > 37.2 µg/mL

Record solubility kinetic per entry; entries follow.
1. CC(=O)N1CCN(C(=O)c2ccc(Cl)c(S(=O)(=O)N3CC(C)OC(C)C3)c2)CC1 (centres undefined)
2. CC(OC(=O)C1CC1)C(=O)Nc1cc(Cl)cc(Cl)c1 (centres undefined)
3. O=C(c1ccc([N+](=O)[O-])cc1)N1CCCC1

Ans.
> 66.6 µg/mL
> 45.3 µg/mL
> 33 µg/mL

Look at each molecule and report its solubility kinetic.
1. CSc1ncc(C(=O)Nc2ccccc2)cn1
2. CCn1c(=S)[nH]c2cc(Cl)ccc21
3. CCS(=O)(=O)c1ccc(O)c(NC(=O)/C=C/c2ccccc2)c1

Ans.
1. > 36.8 µg/mL
2. > 31.9 µg/mL
3. > 49.7 µg/mL

====

Give solubility kinetic for every item shown.
condition.label: buffer; pH 7.4; 200.0 µM

Solved cases (2 shown):
1) CCOc1ccc(N2C(=O)CNC2=S)cc1	> 35.4 µg/mL
2) O=C(CCN1C(=O)c2cccc([N+](=O)[O-])c2C1=O)NC1CCCCCC1	> 53.9 µg/mL

Now for the compound whose solubility kinetic we want.
Qu. Look up solubility kinetic for this compound: "O=C(CCc1nc2ccccc2s1)NCc1ccccc1F"
Ans. > 47.2 µg/mL

====

condition.label: buffer; pH 7.4; 200.0 µM
Assignment: determine reported log10 solubility kinetic for the given compounds.
Lab note - solubility kinetic converted to log10 from values in µg/mL.

Example cases with answers are listed next.
1) COc1ccc(-c2cc(C(=O)N3CCCCC3)c3ccccc3n2)cc1	1.53
2) NC(=O)CSc1ccc(S(=O)(=O)N2CCCCC2)cn1	1.65

# batch size: 4; output log10 solubility kinetic per entry
1. COc1cc(NC(=O)C(Cc2ccccc2)n2cccc2)cc(OC)c1 (stereo unspecified)
2. CC(C)CCNC(=O)c1cc2c(=O)n3ccccc3nc2s1
3. Cc1nc(SCC(=O)NC2CC2)c2c(C)c(C)sc2n1
4. CCCn1cc(C(=O)OCC)c(=O)c2cc(F)c(F)cc21

Ans.
1.21
0.66
1.06
1.54

Dear reader, for each entry below, please note its log10 solubility kinetic.
1. Cc1cc(Cl)ccc1NC(=O)c1ccc2c(c1)OCO2
2. NCCS(=O)(=O)O
3. O=C(NCCCNC(=O)c1ccccn1)c1cccc(F)c1
4. CCC(=O)N1CCN=C1SCc1cccc(C(F)(F)F)c1
5. Cc1ccc(Nc2nc(N)c([N+](=O)[O-])c(NCCO)n2)cc1C
6. O=C(CN1CCN(c2ccccc2F)CC1)c1ccc(O)cc1O
7. Cc1cc(Nc2ccc(C(=O)N3CCCCC3)cc2)c2cccc(C)c2n1

Ans.
1: 0.40; 2: 0.08; 3: 1.63; 4: 1.61; 5: 0.32; 6: 1.03; 7: 0.68

====

Consider the following molecules; for each one, report its solubility kinetic.
condition.label: buffer; pH 7.4; 200.0 µM

Report solubility kinetic for every entry below.
1. Cc1ccccc1N1C(=O)CC(c2c[nH]c3ccccc23)C1=O (centres undefined)
2. COCCNc1nc2nonc2nc1N1C[C@H]2CC[C@H]1C2
3. CC1CCCC(C)N1C(=O)COC(=O)CN1C(=O)c2ccccc2C1=O (centres undefined)
4. O=C(CCl)Nc1ncc(S(=O)(=O)c2ccc([N+](=O)[O-])cc2)s1
5. Cc1cc(=O)n2c(n1)SCOC2

Ans.
> 45.7 µg/mL
> 43.5 µg/mL
> 53.8 µg/mL
> 54.3 µg/mL
> 27.6 µg/mL
